- Test system: 242566-281-R-J2-PDC complex spheroid viability;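 further: spheroids exposed to compounds for 7 days before readout; 100% = DMSO vehicle control wells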
- assay method text: Anticancer human tumor 242566-281-R-J2-PDC patient-derived pancreatic carcinoma cell line growth inhibition [CLK]
- assay setup: second compound 3.16 µM; first compound 0.316 µM; hits give low values
Some compounds, each annotated with its measured viability, T/C.
Respond with the bare value in %.

compound	unit symbol	viability, T/C
Nc1ccccc1NC(=O)c1ccc(CNC(=O)OCc2cccnc2)cc1 + CN1CCN(c2cc(C(=O)Nc3cc4cc(-c5cnn(C)c5)ccc4cn3)ccn2)CC1	%	7.84
CC(Nc1ccc2c(c1)OCCn1cc(N3C(=O)OCC3C(F)F)nc1-2)C(N)=O (stereo not drawn) + CN1CCN(c2cc(C(=O)Nc3cc4cc(-c5cnn(C)c5)ccc4cn3)ccn2)CC1	%	5.25

Consider now this further compound.
Exercise: I have this compound here, O=c1[nH]cc(F)c(=O)[nH]1 + CNC(=O)c1ccc(Nc2nc(OC3CCCC3)c3c(-c4ccc5nc(C)oc5c4)c[nH]c3n2)c(OC)c1 , and I need its recorded viability, T/C.
Solution: 44.7
